# Tested On: T1, human IL4 (human, UniProt P05112 25-153, biotinylated in the SPR and competition assays (sites not given))
# T1 construct: Peprotech #200-04, mature protein produced in E. coli; also called hIL4; Interleukin 4
# T1 sequence: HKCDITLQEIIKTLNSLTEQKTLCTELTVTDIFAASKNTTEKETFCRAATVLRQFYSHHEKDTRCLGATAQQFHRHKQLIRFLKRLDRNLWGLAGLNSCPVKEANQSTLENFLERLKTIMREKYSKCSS
# Measurement Notes: IL4RA binding inhibition; assay not re-described (Luminex of Example 2)
Measured Parameter: IC50 (nM)
Express your answer in nM, writing the number without its unit.

Task: Value lookup for IC50; key = C06_53G6_V1_C01_6G9_V1 (designed binder, bispecific IL4/IL13 ankyrin repeat protein with (GGGGS)4 linker; also called bispecific AR protein) DLGKKLLEAARAGQDDEVRILMANGADVNATDDWGDTLLHLAATDGHLEIVEVLLKAGADVNANDAIGDTPLHLAALYGHLEIVEVLLKYGADVNATDLHGFTPLHLAAFWGHLEIVEVLLKHGADVNAQDKFGKTAFDISIDNGNEDLAEILQKLNGGGGSGGGGSGGGGSGGGGSDLDKKLLEAARAGQDDEVRILMANGADVNARDSYGSTPLHLAAREGHLEIVEVLLKYGADVNAADFIGDTPLHLAAYRGHLEIVEVLLKYGADVNASDITGETPLHLAAQIGHLEIVEVLLKHGADVNAQDKFGKTAFDISIDNGNEDLAEILQKLN
Output: 0.034
